Reported EC50 values follow for various molecules
Target: TLR8 (Homo sapiens)
Construct: Human peripheral blood mononuclear cells (PBMCs) consist of lymphocytes, monocytes and dendritic cells that express TLR7, TLR8 and TLR9; endogenous in cells
Sequence (Q9NR97 27-1041): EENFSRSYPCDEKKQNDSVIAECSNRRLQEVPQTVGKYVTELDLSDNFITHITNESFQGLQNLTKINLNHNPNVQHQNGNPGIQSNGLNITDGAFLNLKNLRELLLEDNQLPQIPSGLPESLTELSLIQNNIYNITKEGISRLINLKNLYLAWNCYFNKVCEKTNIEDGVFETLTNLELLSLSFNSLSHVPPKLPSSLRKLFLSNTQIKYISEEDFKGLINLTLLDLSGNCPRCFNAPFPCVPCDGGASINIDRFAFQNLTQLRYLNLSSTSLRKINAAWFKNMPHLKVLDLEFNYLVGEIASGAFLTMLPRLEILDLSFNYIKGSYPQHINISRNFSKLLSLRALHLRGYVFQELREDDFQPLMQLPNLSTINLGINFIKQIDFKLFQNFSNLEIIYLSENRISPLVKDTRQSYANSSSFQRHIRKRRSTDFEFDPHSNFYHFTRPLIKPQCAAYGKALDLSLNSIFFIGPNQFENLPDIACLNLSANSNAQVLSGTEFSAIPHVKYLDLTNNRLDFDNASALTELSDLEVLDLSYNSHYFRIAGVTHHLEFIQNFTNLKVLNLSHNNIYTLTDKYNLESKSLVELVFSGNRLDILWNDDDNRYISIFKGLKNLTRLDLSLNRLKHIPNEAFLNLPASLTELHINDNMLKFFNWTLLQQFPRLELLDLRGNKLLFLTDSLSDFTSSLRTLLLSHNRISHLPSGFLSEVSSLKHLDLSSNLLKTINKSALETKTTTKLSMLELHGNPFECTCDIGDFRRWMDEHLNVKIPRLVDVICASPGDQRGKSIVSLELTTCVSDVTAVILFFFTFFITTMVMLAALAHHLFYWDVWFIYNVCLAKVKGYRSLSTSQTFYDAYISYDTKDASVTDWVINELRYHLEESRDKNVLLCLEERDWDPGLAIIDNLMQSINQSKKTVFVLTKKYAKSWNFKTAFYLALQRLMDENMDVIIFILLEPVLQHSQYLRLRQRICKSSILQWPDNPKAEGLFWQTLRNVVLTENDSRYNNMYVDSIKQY
Test: TLR8 human PBMC cell-based assay (antagonist, Compound A stimulated cytokine release)
Conditions: human PBMCs; TLR8 agonist Compound A 800 nM, 6 hours; cytokines (TNFa and IL 12p40) in supernatant; read-out: TLR-8 EC50
Kindly format the answer as number then unit.

Check out these entries, answers already filled in.
{"columns": ["Molecule", "Measurement Target", "EC50"],
 "data": [
  ["Cc1cc(-c2[nH]c3cc(C(=O)N4CCNC[C@H]4c4ccccc4)sc3c2C(C)C)cn2ncnc12", "TLR8 (Homo sapiens)", "14 nM"],
  ["Cc1cc(-c2[nH]c3cc(C(=O)N(C)[C@H]4CCNC[C@@H]4F)sc3c2C(C)C)cn2ncnc12", "TLR8 (Homo sapiens)", "8.6 nM"],
  ["CN[C@H]1CCN(C(=O)c2cc3[nH]c(-c4cc(C)c5ncnn5c4)c(C(C)C)c3s2)C1", "TLR8 (Homo sapiens)", "1.7 nM"],
  ["Cc1cc(-c2[nH]c3cc(C4CCN(C(=O)C5CNC5)CC4)sc3c2C(C)C)cn2ncnc12", "TLR8 (Homo sapiens)", "23.8 nM"]
]}

Ask: Identify measured EC50 associated with Cc1cc(-c2[nH]c3cc(-c4nc(C5CCN(CC(N)=O)CC5)no4)sc3c2C(C)C)cn2ncnc12
Result: 5.1 nM

Ask: Identify measured EC50 associated with Cc1cc(-c2[nH]c3cc(-c4nnc(C5CCC(N)CC5)o4)sc3c2C(C)C)cc(C)n1 (stereo not shown)
Result: 23.6 nM

Ask: Identify measured EC50 associated with Cc1cc(-c2[nH]c3cc(C(=O)N[C@@H]4CCNC4)sc3c2C(C)C)cc(C)n1
Result: 654 nM

Ask: Identify measured EC50 associated with Cc1cc(-c2[nH]c3cc(C(=O)N4CCNCC4c4ccc(C(F)(F)F)cc4)sc3c2C(C)C)cn2ncnc12 (stereo not shown)
Result: 47.8 nM

Ask: Identify measured EC50 associated with Cc1cc(-c2[nH]c3cc(C(=O)N4CCC[C@@H](N)C4)sc3c2C(C)C)cc(C)n1
Result: 66.6 nM
